System: F. graminearum CBS185.32 strain
Format: cell-based, Fusarium graminearum
Settings: 50 µM

substance | DON production
C(CH3)GNFLKRTCICVKK (disulfide) [TC3-CH3-1Ox, TC3-CH3-1 oxidized, cyclized through the non-capped Cys] | reduction
C(CH3)GNFLKRTCICVKK [TC3-CH3-1, TC3 with Cys1 capped with a methyl group] | reduction
